# System: Meloidogyne incognita nematodes
# test method notes: Miniaturized greenhouse nematicidal efficacy assay on cucumber seedlings in sand vials (root gall rating)
# condition info: 8 ppm, 500 M. incognita eggs, harvest 10 to 12 days after inoculation, average of triplicate ratings, scale 0-3
measurement name: gall ratings
Please state the value as a number alone, without comment.

Exam item: Returns the measured gall ratings for the input compound. Input: O=c1oc(-c2ccc(Cl)cc2)nn1-c1cccs1 [Formula IIa-iv]
Marked response: 1.67

Exam item: Returns the measured gall ratings for the input compound. Input: O=c1oc(-c2ccco2)nn1-c1ccccc1 [Formula Ia-ii]
Marked response: 1.33

Exam item: Returns the measured gall ratings for the input compound. Input: O=c1oc(-c2cccs2)nn1-c1ccc(F)cc1 [Formula Ia-iv]
Marked response: 2.00

Exam item: Returns the measured gall ratings for the input compound. Input: O=c1oc(-c2cccs2)nn1-c1ccccc1 [Formula Ia-i]
Marked response: 2.00

Exam item: Returns the measured gall ratings for the input compound. Input: O=c1oc(-c2cccs2)nn1-c1ccc(Cl)cc1 [Formula Ia-iii]
Marked response: 0.33

Exam item: Returns the measured gall ratings for the input compound. Input: O=c1oc(-c2ccco2)nn1-c1ccc(Cl)cc1 [Formula Ia-v]
Marked response: 1.00

Exam item: Returns the measured gall ratings for the input compound. Input: O=c1oc(-n2cccc2)nn1-c1ccccc1 [Formula Ic-i]
Marked response: 0.33

Exam item: Returns the measured gall ratings for the input compound. Input: O=c1oc(-n2cccc2)nn1-c1ccc(Cl)cc1 [Formula Ic-ii]
Marked response: 1.67
